Reference for the values: ChEMBL document CHEMBL3988442

Listing of recorded Percent Effect by entry.
test system: Wolbachia pipientis; test: Anti-Wolbachia Cell-Based Screen; type: functional; design: scale not given: in the data most compounds retested in dose-response had high values; details: 5 µM
In all, about 48,000 compounds went through this assay and about 13,000 (27%) showed an effect of 50% or more. The list shows a part of the results.
measurement_type: Percent Effect (%)

compound="Cn1cc(CN2CCc3c(nnn3C)C2COCc2ccccc2)cn1.O=C(O)C(F)(F)F (stereo unspecified)" uom=% value=-8.957
compound=CCOCCOCc1cccc(CNc2cncc(-n3cccn3)n2)c1 uom=% value=5.599
compound="Cc1cnn(CC(C)NCc2ccc(-n3cccn3)cc2)c1 (stereo unspecified)" uom=% value=9.413
compound=CCOCc1ccc(CNc2cncc(-n3cccn3)n2)cc1 uom=% value=106.2
compound=CCN1CC[C@@]2(C(=O)N3CCOCC3)CCN(C(=O)NC)CC[C@@H]12.O=C(O)C(F)(F)F uom=% value=-38.24
compound=COC(=O)Nc1ccc(CNc2cncc(-n3cccn3)n2)cc1 uom=% value=97.69
compound=O=C1CN(c2ccc(CNc3cncc(-n4cccn4)n3)cc2)CCN1 uom=% value=17.5
compound=CC(C)OCc1ccc(CNc2cncc(-n3cccn3)n2)cc1 uom=% value=123.9
compound=NS(=O)(=O)Cc1ccc(CNc2cncc(-n3cccn3)n2)cc1 uom=% value=114
compound=CN(C)C(=O)C1CCN(c2cncc(-n3cccn3)n2)CC1 uom=% value=6.063
compound=CNS(=O)(=O)Cc1ccc(CNc2cncc(-n3cccn3)n2)cc1 uom=% value=3.239
